tested system: UniProt:C3L5T6
Sequence (C3L5T6 whole entry, looked up): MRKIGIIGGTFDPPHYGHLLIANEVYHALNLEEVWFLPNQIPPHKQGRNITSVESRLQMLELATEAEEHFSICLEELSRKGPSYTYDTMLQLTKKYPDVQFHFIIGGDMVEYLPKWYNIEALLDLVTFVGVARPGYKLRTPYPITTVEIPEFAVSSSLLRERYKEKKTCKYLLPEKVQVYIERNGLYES
protocol notes: biochemical
Format: biochemical
property measured: […]. anthracis (%)

smiles code	unit descriptor	meas value
Cc1ccc(S(=O)(=O)/N=C(/NCC(=O)O)c2ccccc2)cc1	%	42
NS(=O)(=O)c1ccc(NC(=S)NCCc2c[nH]c3ccccc23)cc1	%	25
O=C(O)/C=C\C(=O)Nc1ccc(Br)c(Cl)c1	%	0
Cc1nnc(N/N=C/c2ccccc2C(=O)O)nc1O	%	4
Cc1ccc(C(=O)Nc2ccccc2)cc1S(=O)(=O)Nc1ccccn1	%	7
Nc1cc(NCCCCCC(=O)O)ccc1[N+](=O)[O-]	%	1
Brc1cnc2nc(/C=C/c3ccccc3)[nH]c2c1	%	34
Cc1ccc(-c2nnc(SCC(=O)O)[nH]2)cc1	%	0
Cc1cc(Nc2cccc(C(=O)O)c2)n2ncnc2n1	%	0
O=C(Cn1cnc2ccccc2c1=O)Nc1nccs1	%	0

---

tested system: ecNadD (Escherichia coli (strain K12))
protocol notes: biochemical
Type: biochemical
applied conditions: read-out: INHIBITION (%) E. coli
property measured: inhibition at 100 µM (%)

smiles code	property measured	meas value
Nc1c(C(=O)Nc2cccc(Cl)c2)sc2nc(-c3cccs3)ccc12	inhibition at 100 µM	53
Cc1ccccc1N/C=C1\C(=O)Nc2ccccc21	inhibition at 100 µM	7
Nc1c(C(=O)Nc2ccc(Cl)cc2Cl)sc2nc(-c3cccs3)ccc12	inhibition at 100 µM	54
Cc1ccc(N/C=C2\C(=O)Nc3ccccc32)cc1	inhibition at 100 µM	7
O=C1Nc2ccccc2/C1=C/Nc1ccccc1C(=O)O	inhibition at 100 µM	1
Cc1ccc(NC(=O)CCC(=O)N/N=C/c2cccc(Br)c2)cc1	inhibition at 100 µM	75
Nc1c(C(=O)Nc2ccc(F)c(F)c2)sc2nc(-c3ccc(F)cc3)ccc12	inhibition at 100 µM	9
Nc1c(C(=O)Nc2ccc(F)cc2)sc2nc(-c3ccc(F)cc3)ccc12	inhibition at 100 µM	8
Nc1c(C(=O)Nc2cccc(Cl)c2)sc2nc(-c3ccc(F)cc3)ccc12	inhibition at 100 µM	46
O=C(CCC(=O)Nc1ccc(I)cc1)N/N=C/c1c2ccccc2cc2ccccc12	inhibition at 100 µM	79
Nc1c(C(=O)Nc2cc(Cl)cc(Cl)c2)sc2nc(-c3cccs3)ccc12	inhibition at 100 µM	93
O=C1Nc2ccccc2/C1=C/Nc1ccccc1F	inhibition at 100 µM	11
Cc1ccc(CN/C=C2\C(=O)Nc3ccccc32)cc1	inhibition at 100 µM	3
O=C(CCC(=O)Nc1ccc(Br)cc1)N/N=C/c1ccc(Br)cc1	inhibition at 100 µM	74
O=C1Nc2ccccc2/C1=C/Nc1cccnc1	inhibition at 100 µM	12
O=C1Nc2ccccc2/C1=C/NCc1ccccc1	inhibition at 100 µM	11
Cc1ccc(C)c(N/C=C2\C(=O)Nc3ccccc32)c1	inhibition at 100 µM	18
O=C1Nc2ccccc2/C1=C/Nc1cccc(Cl)c1	inhibition at 100 µM	15

---

Reported inhibition at 100 µM by item:
tested system: ecNadD (Escherichia coli (strain K12), UniProt P0A752)
protocol notes: biochemical
Type: biochemical
applied conditions: read-out: INHIBITION (%) E. coli

compound	inhibition at 100 µM (%)
CCc1ccc(N/C=C2\C(=O)Nc3ccccc32)cc1	9
O=C1Nc2ccccc2/C1=C/Nc1ccc(F)cc1	15
Nc1c(C(=O)Nc2ccc(F)c(Cl)c2)sc2nc(-c3ccncc3)ccc12	21
O=C1Nc2ccccc2/C1=C/Nc1ccc(Br)cc1F	29
NC(=O)c1sc2nc(-c3ccc(F)cc3)cc(-c3ccccc3)c2c1N	22
Cc1cc(C)c(N/C=C2\C(=O)Nc3ccccc32)c(C)c1	10
Cc1cccc(C)c1N/C=C1\C(=O)Nc2ccccc21	4
Nc1c(C(=O)Nc2cc(Cl)cc(Cl)c2)sc2nc(-c3ccncc3)ccc12	0
Cc1ccc(N/C=C2\C(=O)Nc3ccccc32)c(C)c1	20
Nc1c(C(=O)Nc2c(Cl)cccc2Cl)sc2nc(-c3cccnc3)ccc12	24
Nc1c(C(=O)Nc2ccc(F)c(F)c2)sc2nc(-c3cccs3)ccc12	46
O=C1Nc2ccccc2/C1=C/Nc1ccc(Br)cc1	13
C/C(=N/NC(=O)CCC(=O)Nc1ccc(Br)cc1)c1ccc(Br)cc1	38
Nc1c(C(=O)Nc2ccc(Cl)c(Cl)c2)sc2nc(-c3cccs3)ccc12	60
CCc1cccc(C)c1N/C=C1\C(=O)Nc2ccccc21	0
O=C1Nc2ccccc2/C1=C/NC1CCCCC1	6
Cc1ccc(/C=N/NC(=O)CCC(=O)Nc2ccc(C)cc2)cc1	60
Cc1ccc(N/C=C2\C(=O)Nc3ccccc32)cc1C	12
COc1cccc(N/C=C2\C(=O)Nc3ccccc32)c1	4
CC(N/C=C1\C(=O)Nc2ccccc21)c1ccccc1 (stereo not drawn)	3
Nc1c(C(=O)Nc2cccc(F)c2)sc2nc(-c3ccc(F)cc3)ccc12	56
